Test: LC/MS measurement of CSF nicotinamide and metabolites in NEAT trial participants
Details: human, in vivo, 1500 mg, CSF methyl-nicotinamide range in participants with elevated level, nicotinamide treated, 12 months
Measured Metric: concentration at 12 months

q: For C[n+]1cccc(C(N)=O)c1 [methyl-nicotinamide, 1-methyl-nicotinamide] , what is its reported concentration at 12 months?
a: 3 to 10 µM

###

Test: LC/MS measurement of plasma nicotinamide and metabolites in NEAT trial participants
Conditions: human, plasma, po, 1500 mg, Mean plasma nicotinamide, nicotinamide-treated participants, 1500 mg PO BID, 6 months
Measured Metric: concentration at 6 months (µM)
Quick note: give the figure in µM, leave out the unit.

q: For NC(=O)c1cccnc1 [Nicotinamide] , what is its reported concentration at 6 months?
a: 73
